MEASUREMENT TARGET: UniProt:P41144
ASSAY METHOD TEXT: IC50 ratio was measured on ethylketazocine (Opioid receptor kappa 1) in the guinea pig ileal longitudinal muscle(GPI) preparation
ENDPOINT: IC50 ratio
API note: the answer field is a bare number with no unit suffix.

Value lookup for IC50 ratio; key = NCCCC[C@@H](NC(=O)c1cccc2c3c([nH]c12)[C@@H]1Oc2c(O)ccc4c2C12CCN(CC1CC1)C(C4)[C@]2(O)C3)C(=O)O (stereo partly specified)
1.1

Value lookup for IC50 ratio; key = N=C(N)NCCC[C@@H](NC(=O)c1cccc2c3c([nH]c12)[C@@H]1Oc2c(O)ccc4c2C12CCN(CC1CC1)C(C4)[C@]2(O)C3)C(=O)O (stereo partly specified)
1.2

Value lookup for IC50 ratio; key = O=C(O)CNC(=O)c1cccc2c3c([nH]c12)[C@@H]1Oc2c(O)ccc4c2C12CCN(CC1CC1)C(C4)[C@]2(O)C3 (stereo partly specified)
1.1

Value lookup for IC50 ratio; key = NCCC[C@@H](NC(=O)c1cccc2c3c([nH]c12)[C@@H]1Oc2c(O)ccc4c2C12CCN(CC1CC1)C(C4)[C@]2(O)C3)C(=O)O (stereo partly specified)
0.9

Value lookup for IC50 ratio; key = O=C(O)c1cccc2c3c([nH]c12)[C@@H]1Oc2c(O)ccc4c2C12CCN(CC1CC1)C(C4)[C@]2(O)C3 (stereo partly specified)
1

Value lookup for IC50 ratio; key = O=C(O)C[C@@H](NC(=O)c1cccc2c3c([nH]c12)[C@@H]1Oc2c(O)ccc4c2C12CCN(CC1CC1)C(C4)[C@]2(O)C3)C(=O)O (stereo partly specified)
2.1

====

Provide the reported Ki of each item.
Please give a number only; it is taken to be in nM.

Look up Ki with Kappa-type opioid receptor (Cavia porcellus) for this molecule: N=C(N)NCCC[C@@H](NC(=O)c1cccc2c3c([nH]c12)[C@@H]1Oc2c(O)ccc4c2C12CCN(CC1CC1)C(C4)[C@]2(O)C3)C(=O)O (some centres undefined)
188

Look up Ki with Kappa-type opioid receptor (Cavia porcellus) for this molecule: NCCC[C@@H](NC(=O)c1cccc2c3c([nH]c12)[C@@H]1Oc2c(O)ccc4c2C12CCN(CC1CC1)C(C4)[C@]2(O)C3)C(=O)O (some centres undefined)
57

Look up Ki with Kappa-type opioid receptor (Cavia porcellus) for this molecule: O=C(O)C[C@@H](NC(=O)c1cccc2c3c([nH]c12)[C@@H]1Oc2c(O)ccc4c2C12CCN(CC1CC1)C(C4)[C@]2(O)C3)C(=O)O (some centres undefined)
893

Look up Ki with Kappa-type opioid receptor (Cavia porcellus) for this molecule: NCCCC[C@@H](NC(=O)c1cccc2c3c([nH]c12)[C@@H]1Oc2c(O)ccc4c2C12CCN(CC1CC1)C(C4)[C@]2(O)C3)C(=O)O (some centres undefined)
41

====

Provide the reported Ki of each item.
Please give a number only; it is taken to be in nM.

Look up Ki with Mu-type opioid receptor (Cavia porcellus, UniProt P97266) for this compound: O=C(O)c1cccc2c3c([nH]c12)[C@@H]1Oc2c(O)ccc4c2C12CCN(CC1CC1)C(C4)[C@]2(O)C3 (stereo partly drawn)
24

Look up Ki with Mu-type opioid receptor (Cavia porcellus, UniProt P97266) for this compound: N=C(N)NCCC[C@@H](NC(=O)c1cccc2c3c([nH]c12)[C@@H]1Oc2c(O)ccc4c2C12CCN(CC1CC1)C(C4)[C@]2(O)C3)C(=O)O (stereo partly drawn)
333

Look up Ki with Mu-type opioid receptor (Cavia porcellus, UniProt P97266) for this compound: NCCCC[C@@H](NC(=O)c1cccc2c3c([nH]c12)[C@@H]1Oc2c(O)ccc4c2C12CCN(CC1CC1)C(C4)[C@]2(O)C3)C(=O)O (stereo partly drawn)
219

====

MEASUREMENT TARGET: Delta-type opioid receptor (Mus musculus) (UniProt P32300)
ASSAY METHOD TEXT: IC50 ratio was measured on DADLE (delta) in the mouse vas deferens (MVD) preparation
Provide the reported IC50 ratio of each item.
API note: the answer field is a bare number with no unit suffix.

Value lookup for IC50 ratio; key = O=C(O)c1cccc2c3c([nH]c12)[C@@H]1Oc2c(O)ccc4c2C12CCN(CC1CC1)C(C4)[C@]2(O)C3 (stereo partly specified)
25

Value lookup for IC50 ratio; key = O=C(O)C[C@@H](NC(=O)c1cccc2c3c([nH]c12)[C@@H]1Oc2c(O)ccc4c2C12CCN(CC1CC1)C(C4)[C@]2(O)C3)C(=O)O (stereo partly specified)
89

Value lookup for IC50 ratio; key = NCCCC[C@@H](NC(=O)c1cccc2c3c([nH]c12)[C@@H]1Oc2c(O)ccc4c2C12CCN(CC1CC1)C(C4)[C@]2(O)C3)C(=O)O (stereo partly specified)
20

Value lookup for IC50 ratio; key = N=C(N)NCCC[C@@H](NC(=O)c1cccc2c3c([nH]c12)[C@@H]1Oc2c(O)ccc4c2C12CCN(CC1CC1)C(C4)[C@]2(O)C3)C(=O)O (stereo partly specified)
31

Value lookup for IC50 ratio; key = NCCC[C@@H](NC(=O)c1cccc2c3c([nH]c12)[C@@H]1Oc2c(O)ccc4c2C12CCN(CC1CC1)C(C4)[C@]2(O)C3)C(=O)O (stereo partly specified)
58

Value lookup for IC50 ratio; key = O=C(O)CNC(=O)c1cccc2c3c([nH]c12)[C@@H]1Oc2c(O)ccc4c2C12CCN(CC1CC1)C(C4)[C@]2(O)C3 (stereo partly specified)
32

====

MEASUREMENT TARGET: Opioid receptors; delta & kappa (Homo sapiens) (UniProt P41145+P41143)
ASSAY METHOD TEXT: Selectivity as the ratio of Ki value towards kappa receptor to that of delta 1 receptor.
Format: protein assay
ENDPOINT: Selectivity
API note: the answer field is a bare number with no unit suffix.

Value lookup for Selectivity; key = NCCC[C@@H](NC(=O)c1cccc2c3c([nH]c12)[C@@H]1Oc2c(O)ccc4c2C12CCN(CC1CC1)C(C4)[C@]2(O)C3)C(=O)O (stereo partly specified)
320

Value lookup for Selectivity; key = N=C(N)NCCC[C@@H](NC(=O)c1cccc2c3c([nH]c12)[C@@H]1Oc2c(O)ccc4c2C12CCN(CC1CC1)C(C4)[C@]2(O)C3)C(=O)O (stereo partly specified)
1180

Value lookup for Selectivity; key = NCCCC[C@@H](NC(=O)c1cccc2c3c([nH]c12)[C@@H]1Oc2c(O)ccc4c2C12CCN(CC1CC1)C(C4)[C@]2(O)C3)C(=O)O (stereo partly specified)
134

Value lookup for Selectivity; key = O=C(O)C[C@@H](NC(=O)c1cccc2c3c([nH]c12)[C@@H]1Oc2c(O)ccc4c2C12CCN(CC1CC1)C(C4)[C@]2(O)C3)C(=O)O (stereo partly specified)
6250

Value lookup for Selectivity; key = O=C(O)c1cccc2c3c([nH]c12)[C@@H]1Oc2c(O)ccc4c2C12CCN(CC1CC1)C(C4)[C@]2(O)C3 (stereo partly specified)
3250

Value lookup for Selectivity; key = O=C(O)CNC(=O)c1cccc2c3c([nH]c12)[C@@H]1Oc2c(O)ccc4c2C12CCN(CC1CC1)C(C4)[C@]2(O)C3 (stereo partly specified)
30000

====

Provide the reported Ki of each item.
Please give a number only; it is taken to be in nM.

Look up Ki with Mu-type opioid receptor (Cavia porcellus, UniProt P97266) for this compound: O=C(O)CNC(=O)c1cccc2c3c([nH]c12)[C@@H]1Oc2c(O)ccc4c2C12CCN(CC1CC1)C(C4)[C@]2(O)C3 (stereo partly drawn)
206

Look up Ki with Mu-type opioid receptor (Cavia porcellus, UniProt P97266) for this compound: O=C(O)C[C@@H](NC(=O)c1cccc2c3c([nH]c12)[C@@H]1Oc2c(O)ccc4c2C12CCN(CC1CC1)C(C4)[C@]2(O)C3)C(=O)O (stereo partly drawn)
368

Look up Ki with Mu-type opioid receptor (Cavia porcellus, UniProt P97266) for this compound: NCCC[C@@H](NC(=O)c1cccc2c3c([nH]c12)[C@@H]1Oc2c(O)ccc4c2C12CCN(CC1CC1)C(C4)[C@]2(O)C3)C(=O)O (stereo partly drawn)
136

====

Provide the reported Selectivity of each item.
MEASUREMENT TARGET: Opioid receptors; mu & delta (Homo sapiens) (UniProt P41143+P35372)
ASSAY METHOD TEXT: Selectivity as the ratio of Ki value towards mu receptor to that of delta 1 receptor.
Type: protein assay
API note: the answer field is a bare number with no unit suffix.

Look up Selectivity with Opioid receptors; mu & delta (Homo sapiens) (UniProt P41143+P35372) for this compound: O=C(O)c1cccc2c3c([nH]c12)[C@@H]1Oc2c(O)ccc4c2C12CCN(CC1CC1)C(C4)[C@]2(O)C3 (stereo partly specified)
1850

Look up Selectivity with Opioid receptors; mu & delta (Homo sapiens) (UniProt P41143+P35372) for this compound: O=C(O)C[C@@H](NC(=O)c1cccc2c3c([nH]c12)[C@@H]1Oc2c(O)ccc4c2C12CCN(CC1CC1)C(C4)[C@]2(O)C3)C(=O)O (stereo partly specified)
2570

Look up Selectivity with Opioid receptors; mu & delta (Homo sapiens) (UniProt P41143+P35372) for this compound: O=C(O)CNC(=O)c1cccc2c3c([nH]c12)[C@@H]1Oc2c(O)ccc4c2C12CCN(CC1CC1)C(C4)[C@]2(O)C3 (stereo partly specified)
38200

Look up Selectivity with Opioid receptors; mu & delta (Homo sapiens) (UniProt P41143+P35372) for this compound: NCCCC[C@@H](NC(=O)c1cccc2c3c([nH]c12)[C@@H]1Oc2c(O)ccc4c2C12CCN(CC1CC1)C(C4)[C@]2(O)C3)C(=O)O (stereo partly specified)
719

Look up Selectivity with Opioid receptors; mu & delta (Homo sapiens) (UniProt P41143+P35372) for this compound: N=C(N)NCCC[C@@H](NC(=O)c1cccc2c3c([nH]c12)[C@@H]1Oc2c(O)ccc4c2C12CCN(CC1CC1)C(C4)[C@]2(O)C3)C(=O)O (stereo partly specified)
2100

Look up Selectivity with Opioid receptors; mu & delta (Homo sapiens) (UniProt P41143+P35372) for this compound: NCCC[C@@H](NC(=O)c1cccc2c3c([nH]c12)[C@@H]1Oc2c(O)ccc4c2C12CCN(CC1CC1)C(C4)[C@]2(O)C3)C(=O)O (stereo partly specified)
756
